// data source = patent US12606544B2

System: phosphorylation of STAT6
assayOverview: Cellular p-STAT6 assay, IL-13 stimulated THP-1 cells, flow cytometry
Type: cell-based
experimentalParameters: Homo sapiens, THP-1, THP-1 cells, IL-13 10 ng/ml; read-out: pSTAT6 IC50
measuredParameter: IC50 (nM)
Field: numeric (nM). Do not append units.

- compound: "COC[C@H](C(=O)Nc1cccc2c(-c3nc(Nc4cnc(CCO)c(OC)c4)ncc3F)c[nH]c12)N1CCN(C)CC1"
  observedMeasurement: 20.3
- compound: "COC[C@H](C(=O)Nc1cccc2c(-c3nc(Nc4ccc(-c5cnco5)nc4)ncc3F)c[nH]c12)N1CCN(C)CC1"
  observedMeasurement: 12.1
- compound: "COC[C@H](C(=O)Nc1cccc2c(-c3nc(Nc4cnc(C(=O)OC)c(C)c4)ncc3F)c[nH]c12)N1CCN(C)CC1"
  observedMeasurement: 16
- compound: "COC[C@H](C(=O)Nc1cccc2c(-c3nc(Nc4ccc(C(C)O)nc4)ncc3F)c[nH]c12)N1CCN(C)CC1 (single isomer, unassigned; isomer 2)"
  observedMeasurement: 6.5
- compound: "COC[C@H](C(=O)Nc1cccc2c(-c3nc(Nc4ccc5[nH]ccc5c4)ncc3F)c[nH]c12)N1CCN(C)CC1"
  observedMeasurement: 12.6
- compound: "COC[C@H](C(=O)Nc1cccc2c(-c3nc(Nc4cnc5cn[nH]c5c4)ncc3F)c[nH]c12)N1CCN(C)CC1"
  observedMeasurement: 7.7

Req: IC50 for COC[C@H](C(=O)Nc1cccc2c(-c3nc(Nc4ccc5c(C(=O)OC)n[nH]c5c4)ncc3F)c[nH]c12)N1CCN(C)CC1 ?
Resp: 13.2

Req: What about COC[C@H](C(=O)Nc1cccc2c(-c3nc(Nc4ccc5c(c4)NC(=O)C5)ncc3F)c[nH]c12)N1CCN(C)CC1 ?
Resp: 11.5

Req: Now give it for CNC(=O)COc1cncc(Nc2ncc(F)c(-c3c[nH]c4c(NC(=O)[C@@H](COC)N5CCN(C)CC5)cccc34)n2)c1 too.
Resp: 20.9

Req: Further, for COC[C@H](C(=O)Nc1cccc2c(-c3nc(Nc4ccc5c(c4)CCOC5=O)ncc3F)c[nH]c12)N1CCN(C)CC1 ?
Resp: 12.8

Req: // repeat for COC[C@H](C(=O)Nc1cccc2c(-c3nc(Nc4ccc5ocnc5c4)ncc3F)c[nH]c12)N1CCN(C)CC1 and report
Resp: 14.9

Req: Now consider COC[C@H](C(=O)Nc1cccc2c(-c3nc(Nc4ccc5scnc5c4)ncc3F)c[nH]c12)N1CCN(C)CC1 and answer again.
Resp: 9.1

Req: For COC[C@H](C(=O)Nc1cccc2c(-c3nc(Nc4cc(CO)c5cn[nH]c5c4)ncc3F)c[nH]c12)N1CCN(C)CC1 then?
Resp: 17.7

---

testedOn: JAK2 (Homo sapiens, UniProt O60674)
Sequence (O60674 whole entry): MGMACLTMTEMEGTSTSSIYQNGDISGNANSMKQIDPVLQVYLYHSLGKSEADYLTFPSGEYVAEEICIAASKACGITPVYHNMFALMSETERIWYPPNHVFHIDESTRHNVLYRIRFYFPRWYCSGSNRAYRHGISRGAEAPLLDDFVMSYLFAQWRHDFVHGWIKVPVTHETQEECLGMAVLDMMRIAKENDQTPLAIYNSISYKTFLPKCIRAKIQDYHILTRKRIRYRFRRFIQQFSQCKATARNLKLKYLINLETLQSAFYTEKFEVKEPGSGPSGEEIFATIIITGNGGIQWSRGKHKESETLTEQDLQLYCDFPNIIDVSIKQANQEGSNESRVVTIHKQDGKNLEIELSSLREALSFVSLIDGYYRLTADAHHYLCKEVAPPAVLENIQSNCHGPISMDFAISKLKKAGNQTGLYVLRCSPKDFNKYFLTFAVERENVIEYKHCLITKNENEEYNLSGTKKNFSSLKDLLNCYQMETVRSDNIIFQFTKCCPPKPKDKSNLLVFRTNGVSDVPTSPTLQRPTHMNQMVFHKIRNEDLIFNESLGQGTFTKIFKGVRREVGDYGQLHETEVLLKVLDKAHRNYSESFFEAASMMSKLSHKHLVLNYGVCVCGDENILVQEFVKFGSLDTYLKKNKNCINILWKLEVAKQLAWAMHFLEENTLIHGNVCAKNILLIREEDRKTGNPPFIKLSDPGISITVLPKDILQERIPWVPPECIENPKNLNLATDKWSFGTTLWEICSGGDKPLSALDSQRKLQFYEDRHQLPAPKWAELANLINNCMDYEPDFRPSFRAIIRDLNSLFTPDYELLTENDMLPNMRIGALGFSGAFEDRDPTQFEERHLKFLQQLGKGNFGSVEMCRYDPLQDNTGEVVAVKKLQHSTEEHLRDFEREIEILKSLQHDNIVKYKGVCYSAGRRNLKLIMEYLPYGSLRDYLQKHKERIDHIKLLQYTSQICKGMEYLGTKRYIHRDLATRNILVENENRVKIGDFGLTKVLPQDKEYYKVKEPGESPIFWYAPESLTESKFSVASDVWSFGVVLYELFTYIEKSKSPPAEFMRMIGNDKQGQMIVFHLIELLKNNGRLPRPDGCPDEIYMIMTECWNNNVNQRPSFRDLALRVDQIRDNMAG
assayOverview: Lance Ultra Kinase Assay, recombinant JAK2
experimentalParameters: 5 mM ATP
Mark Satisfied only for IC50 values smaller than 200 nM; exact matches and larger values are Not satisfied.

Req: Say whether its IC50 is strictly beneath 200 nM. Entry: COC[C@H](C(=O)Nc1cccc2c(-c3nc(Nc4cc(CO)c5cn[nH]c5c4)ncc3F)c[nH]c12)N1CCN(C)CC1 [Example 61]
Resp: Satisfied

---

testedOn: JAK3 (Homo sapiens, UniProt P52333)
Sequence (P52333 whole entry): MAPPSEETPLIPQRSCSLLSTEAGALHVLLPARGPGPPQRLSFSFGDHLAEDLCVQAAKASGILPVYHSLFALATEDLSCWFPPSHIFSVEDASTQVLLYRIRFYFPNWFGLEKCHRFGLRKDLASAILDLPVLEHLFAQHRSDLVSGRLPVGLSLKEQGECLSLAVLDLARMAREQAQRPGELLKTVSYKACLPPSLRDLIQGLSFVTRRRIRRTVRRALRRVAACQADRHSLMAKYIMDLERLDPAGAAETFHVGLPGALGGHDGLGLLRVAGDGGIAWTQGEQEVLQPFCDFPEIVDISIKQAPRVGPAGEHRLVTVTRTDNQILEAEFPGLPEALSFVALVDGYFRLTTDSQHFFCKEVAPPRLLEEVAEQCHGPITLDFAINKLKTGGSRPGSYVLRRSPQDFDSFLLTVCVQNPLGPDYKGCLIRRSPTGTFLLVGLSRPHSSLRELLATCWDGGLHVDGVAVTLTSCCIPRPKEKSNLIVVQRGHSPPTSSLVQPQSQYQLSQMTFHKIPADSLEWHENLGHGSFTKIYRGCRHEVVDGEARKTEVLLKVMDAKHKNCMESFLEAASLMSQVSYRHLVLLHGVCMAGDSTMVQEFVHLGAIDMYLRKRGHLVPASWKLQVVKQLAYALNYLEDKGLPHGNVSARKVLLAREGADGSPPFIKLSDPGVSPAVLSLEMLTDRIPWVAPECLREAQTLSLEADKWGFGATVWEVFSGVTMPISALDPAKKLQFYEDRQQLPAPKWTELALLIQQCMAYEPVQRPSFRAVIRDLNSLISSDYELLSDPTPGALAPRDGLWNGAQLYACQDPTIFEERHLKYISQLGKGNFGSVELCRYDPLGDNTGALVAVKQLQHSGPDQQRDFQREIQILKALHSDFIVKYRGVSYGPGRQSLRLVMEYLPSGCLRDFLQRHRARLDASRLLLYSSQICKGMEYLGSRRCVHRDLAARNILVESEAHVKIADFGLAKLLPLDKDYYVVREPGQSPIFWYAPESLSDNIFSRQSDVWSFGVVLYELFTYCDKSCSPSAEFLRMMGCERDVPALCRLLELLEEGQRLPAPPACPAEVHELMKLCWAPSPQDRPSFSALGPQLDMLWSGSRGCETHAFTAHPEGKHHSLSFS
assayOverview: Lance Ultra Kinase Assay, recombinant JAK3
experimentalParameters: 5 mM ATP
pIC50: −log10 of the molar value.
measuredParameter: pIC50

Here are 10 molecules together with their reported answers.
- molecule: "COC[C@H](C(=O)Nc1cccc2c(-c3nc(Nc4cncc(CCCO)c4)ncc3F)c[nH]c12)N1CCN(C)CC1"
  observedMeasurement: "< 5.00"
- molecule: "COC[C@H](C(=O)Nc1cccc2c(-c3nc(Nc4ccc5c(c4)C(=O)NCC5)ncc3F)c[nH]c12)N1CCN(C)CC1"
  observedMeasurement: "< 5.00"
- molecule: "CCOC(=O)c1ccc(Nc2ncc(F)c(-c3c[nH]c4c(NC(=O)[C@@H](COC)N5CCN(C)CC5)cccc34)n2)cn1"
  observedMeasurement: "< 5.00"
- molecule: "COC[C@H](C(=O)Nc1cccc2c(-c3nc(Nc4ccnc(CO)c4)ncc3F)c[nH]c12)N1CCN(C)CC1"
  observedMeasurement: "< 5.00"
- molecule: "COC[C@H](C(=O)Nc1cccc2c(-c3nc(Nc4cnc5cn[nH]c5c4)ncc3F)c[nH]c12)N1CCN(C)CC1"
  observedMeasurement: "< 5.00"
- molecule: "COC[C@H](C(=O)Nc1cccc2c(-c3nc(Nc4ccc(OCc5ncco5)nc4)ncc3F)c[nH]c12)N1CCN(C)CC1"
  observedMeasurement: "< 5.00"
- molecule: "COC[C@H](C(=O)Nc1cccc2c(-c3nc(Nc4cc(CO)c5cn[nH]c5c4)ncc3F)c[nH]c12)N1CCN(C)CC1"
  observedMeasurement: 5.45
- molecule: "COC[C@H](C(=O)Nc1cccc2c(-c3nc(Nc4ccc5sc(CO)nc5c4)ncc3F)c[nH]c12)N1CCN(C)CC1"
  observedMeasurement: "< 5.00"
- molecule: "COC[C@H](C(=O)Nc1cccc2c(-c3nc(Nc4ccnc(CCC(=O)OC)c4)ncc3F)c[nH]c12)N1CCN(C)CC1"
  observedMeasurement: "< 5.00"
- molecule: "COC[C@H](C(=O)Nc1cccc2c(-c3nc(Nc4cnn(C5CCOCC5)c4)ncc3F)c[nH]c12)N1CCN(C)CC1"
  observedMeasurement: 5.11

Kindly review the next molecule as well.
Req: Which pIC50 is listed for COC[C@H](C(=O)Nc1cccc2c(-c3nc(Nc4cnn(-c5ccccc5CO)c4)ncc3F)c[nH]c12)N1CCN(C)CC1 ?
Resp: < 5.00
